These entries and their values trace back to patent US10407467B2.

Give MIC A. baumannii CCUG57249 for every item shown.
Test system: Acinetobacter baumannii
Assay: MIC, compound in combination with a second agent (broth microdilution)
Type: cell-based
Conditions: 1:1 (wt:wt) combination with Rifampicin; MIC = total drug concentration; strain CCUG57249
Structures can show the parent of a compound that is named as a salt. Bridge positions count the residues as written; N and C are the ends. Square brackets hold non-standard residues; d marks the D form. Peptide text beside a SMILES is read from it. * marks the point of attachment. ξ: configuration not given here. ξβ3hGly(cHex) = NC(CC(=O)*)C1CCCCC1; Thr(3ξ) = CC(O)[C@H](N)C(=O)O; X10 = NC1(CC(=O)*)CCCCC1; Dab = NCC[C@H](N)C(=O)O; Ahp = NCCCCCCC(=O)O

CC(C)C[C@@H]1NC(=O)[C@@H](CC(C)C)NC(=O)[C@H](CCN)NC(=O)[C@@H](NC(=O)[C@H](CCN)NC(=O)[C@@H](NC(=O)C(O)C2CCCCC2)C(C)O)CCNC(=O)[C@H](C(C)O)NC(=O)[C@H](CCN)NC(=O)[C@H](CCN)NC1=O (single isomer, unassigned; isomer 1) [Example 31] :: 0.25 micrograms/mL

Need MIC A. baumannii CCUG57249 for each of these molecules.
1. CC(C)C[C@@H]1NC(=O)[C@@H](Cc2ccccc2)NC(=O)[C@H](CCN)NC(=O)[C@@H](NC(=O)[C@H](CCN)NC(=O)[C@@H](NC(=O)CC2(N)CCCCC2)C(C)O)CCNC(=O)[C@H](C(C)O)NC(=O)[C@H](CCN)NC(=O)[C@H](CCN)NC1=O (some centres unmarked) [Example 42, TFA salt] (X10-[Thr(3ξ)][Dab][Dab][Dab][dF]L[Dab][Dab][Thr(3ξ)]; lactam 3-C)
2. CC(C)C[C@@H]1NC(=O)[C@@H](Cc2ccccc2)NC(=O)[C@H](CCN)NC(=O)[C@@H](NC(=O)[C@H](CCN)NC(=O)[C@@H](NC(=O)CCCCCCN)C(C)O)CCNC(=O)[C@H](C(C)O)NC(=O)[C@H](CCN)NC(=O)[C@H](CCN)NC1=O (some centres unmarked) [Example 13, 7-Aminoheptanoyl polymyxin B nonapeptide] (H-[Ahp][Thr(3ξ)][Dab][Dab][Dab][dF]L[Dab][Dab][Thr(3ξ)]; lactam 4-C)
3. CC(C)C[C@H]1NC(=O)[C@H](CCN)NC(=O)[C@@H](NC(=O)[C@H](CCN)NC(=O)[C@@H](NC(=O)CC(N)C2CCCCC2)C(C)O)CCNC(=O)[C@H](C(C)O)NC(=O)[C@H](CCN)NC(=O)[C@H](CCN)NC(=O)[C@H](C(C)O)NC1=O (stereo partly drawn) [Example 50] ({ξβ3hGly(cHex)}-[Thr(3ξ)][Dab][Dab][Dab][dL][Thr(3ξ)][Dab][Dab][Thr(3ξ)]; lactam 3-C)
4. CC(C)C[C@@H]1NC(=O)[C@@H](CC(C)C)NC(=O)[C@H](CCN)NC(=O)[C@@H](NC(=O)[C@H](CCN)NC(=O)[C@@H](NC(=O)CC(N)C2CCCCC2)C(C)O)CCNC(=O)[C@H](C(C)O)NC(=O)[C@H](CCN)NC(=O)[C@H](CCN)NC1=O (stereo partly drawn) [Example 30, TFA salt] ({ξβ3hGly(cHex)}-[Thr(3ξ)][Dab][Dab][Dab][dL]L[Dab][Dab][Thr(3ξ)]; lactam 3-C)

Solution:
1: ≤0.06 micrograms/mL; 2: 0.125 micrograms/mL; 3: 0.125 micrograms/mL; 4: 0.125 micrograms/mL
